target_system: human TRPM5 ion channel (Homo sapiens)
Construct: expressed in transfected cells
Sequence (Q9NZQ8 whole entry): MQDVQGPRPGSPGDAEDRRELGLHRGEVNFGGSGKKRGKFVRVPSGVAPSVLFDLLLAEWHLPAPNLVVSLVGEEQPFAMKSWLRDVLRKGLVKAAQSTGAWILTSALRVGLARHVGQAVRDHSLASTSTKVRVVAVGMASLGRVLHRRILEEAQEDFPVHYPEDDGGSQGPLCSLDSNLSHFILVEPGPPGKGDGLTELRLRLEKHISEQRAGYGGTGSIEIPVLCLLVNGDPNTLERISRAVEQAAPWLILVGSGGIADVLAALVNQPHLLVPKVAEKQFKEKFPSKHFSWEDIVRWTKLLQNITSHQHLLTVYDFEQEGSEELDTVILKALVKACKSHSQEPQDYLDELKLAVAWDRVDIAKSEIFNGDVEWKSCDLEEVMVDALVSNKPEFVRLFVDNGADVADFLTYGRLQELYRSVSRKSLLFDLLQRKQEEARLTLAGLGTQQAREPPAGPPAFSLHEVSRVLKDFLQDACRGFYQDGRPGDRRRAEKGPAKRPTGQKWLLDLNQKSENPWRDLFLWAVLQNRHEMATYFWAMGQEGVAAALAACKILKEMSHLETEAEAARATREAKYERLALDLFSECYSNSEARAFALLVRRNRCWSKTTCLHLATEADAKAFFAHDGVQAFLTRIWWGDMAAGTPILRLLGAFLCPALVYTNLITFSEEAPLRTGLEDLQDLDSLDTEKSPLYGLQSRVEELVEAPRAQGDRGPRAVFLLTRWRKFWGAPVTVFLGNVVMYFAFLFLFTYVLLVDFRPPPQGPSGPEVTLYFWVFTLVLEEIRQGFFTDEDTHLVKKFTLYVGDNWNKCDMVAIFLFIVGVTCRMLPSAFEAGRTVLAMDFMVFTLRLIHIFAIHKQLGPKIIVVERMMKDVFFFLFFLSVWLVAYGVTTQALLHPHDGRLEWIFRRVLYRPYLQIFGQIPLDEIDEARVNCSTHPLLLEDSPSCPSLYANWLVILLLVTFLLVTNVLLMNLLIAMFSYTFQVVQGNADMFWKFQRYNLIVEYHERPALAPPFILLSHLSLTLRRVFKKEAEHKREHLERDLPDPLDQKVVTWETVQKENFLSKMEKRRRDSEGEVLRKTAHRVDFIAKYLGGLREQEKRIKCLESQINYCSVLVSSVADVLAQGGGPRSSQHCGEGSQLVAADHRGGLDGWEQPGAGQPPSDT
assay_name: TRPM5 FLIPR membrane potential screening assay (ATP stimulation)
Type: cell-based
condition_info: 10 μM compound; HEK293 cells stably expressing human TRPM5; 3 μM ATP stimulation; versus negative control wells; read-out: TRPM5 Activity (percent inhibition)
value_kind: inhibition at 10 µM (%)

Solved cases (10 shown):
COc1ccc(/C=N/NC(=O)C2CC2c2ccccc2)cc1OC (stereo not shown); 99
N#CC(C#N)=NNc1ccc(SC(F)(F)F)cc1; 78
CN(/N=C/c1ccc(O)cc1O)c1ncc(Cl)cc1C(F)(F)F; 65
Cc1ccc2c(c1)/C(=N/NC(=O)/C(=C\c1ccccc1)NC(=O)c1ccccc1)C(=O)N2C; 78
CCN(CC)c1ccc(/C=N/Nc2nc3ccccc3[nH]2)c(O)c1; 58
COc1ccc(/C=N/NC(=O)COc2cccc(C)c2)cc1OC; 76
CCN(CC)c1ccc(/C=N/NC(=O)C2CC2c2ccccc2)c(O)c1 (stereo not shown); 48
O=[N+](O)c1ccc(N2CCCC2)cc1N/N=C1\CN2CCC1CC2; 51
CCCCn1cc(/C=N\Nc2ccccc2C(=O)O)c2ccccc21; 74
CC(C)c1ccc(/C=N/NC(=O)C2C3CCCCC32)cc1 (stereo not shown); 78

(I) CCCCCCCC(O)CCC(=O)N/N=C/c1ccc(OC)c(OC)c1 (stereo not shown)
(II) O=C(N/N=C\c1ccc[nH]1)C12CC3CC(CC(C3)C1)C2
(III) COC(=O)c1ccc(/N=N/C(=N\Nc2nc3ccccc3s2)C(C)C)cc1
Problem: # rank by inhibition at 10 µM, ascending (min first) Answer by writing out the labels in the requested order.
Solution: II, III, I

Values from patent US20070207093A1
